The reported numbers originate from patent US8633134B2.

# Test system: Mediterranean Fruitfly (Ceratitis capitata)
# assay_text: Mediterranean fruitfly microtiter plate diet test
# Assay type: in vivo
# measurement_parameters: 120 h
measured_metric: mortality at 2500 ppm

> print(dat)
                                   compound  result
1  Cc1cc(C2=NOC(c3cc(Cl)cc(Cl)c3)(C(F)(F)F)C2)ccc1C(=NCC(F)(F)F)NC(=O)CO (stereo not drawn)   ≥ 75%
2  Cc1cc(C2=NOC(c3cc(Cl)cc(Cl)c3)(C(F)(F)F)C2)ccc1C(=NCc1ccccn1)NO (stereo not drawn)   ≥ 75%

Now for the compound whose mortality at 2500 ppm we want.
Ask: Which mortality at 2500 ppm value is on record for Cc1nc(-c2ccc(C3=NOC(c4cc(Cl)cc(Cl)c4)(C(F)(F)F)C3)cc2C)no1 (stereo not drawn) ?
Reply: ≥ 75%
